target: UniProt P25090; experiment: FPR2 cyclic adenosine monophosphate (cAMP) assay; assay type: cell-based; settings: CHO cells overexpressing human FPR2; forskolin 5 µM; inhibition of cAMP production; read-out: hFPR2 cAMP2 EC50
pEC50: −log10 of the molar value.
readoutName: pEC50

1) COc1cc(F)c([C@@H]2CN(c3c(C)ccn(CC(O)C(F)(F)F)c3=O)C(=O)[C@H]2NC(=O)c2ccc(Cl)cc2)c(F)c1 (stereo partly shown): 8.25
2) COc1cc(F)c([C@@H]2CN(c3c(C#N)ccn(C)c3=O)C(=O)[C@H]2NC(=O)c2ccc(Cl)cc2)c(F)c1: 8.15
3) COc1cc(F)c([C@@H]2CN(c3cccc(N4C[C@H]5C[C@@H]4CO5)n3)C(=O)[C@H]2NC(=O)c2ccc(OC(F)F)cc2)c(F)c1: 8.26

I = COc1cc(F)c([C@@H]2CN(c3nccc(N4CCN(C)CC4)c3C#N)C(=O)[C@H]2NC(=O)c2ccc(Cl)cc2)c(F)c1
II = COc1ccc([C@@H]2CN(c3cccn(CC(F)F)c3=O)C(=O)[C@H]2NC(=O)c2ccc(OC(F)(F)F)cc2)c(F)c1
III = COc1cc(N2C[C@@H]3C[C@H]2CO3)nc(N2C(=O)[C@@H](NC(=O)c3ccc(OC(F)(F)F)cc3)[C@H](c3c(F)cc(OC)cc3F)[C@@H]2C)c1
IV = COc1ccc([C@@H]2CN(c3c(C)ccn(C4CCC4)c3=O)C(=O)[C@H]2NC(=O)c2ccc(OC(F)F)cc2)c(F)c1
Request: # desc sort on pEC50 across 4 molecules Present the labels in the sequence the task asks for.
Result: II, IV, I, III

###

biological target: human FPR2 (Homo sapiens (Human)); assay: FPR2 cyclic adenosine monophosphate (cAMP) assay; settings: CHO cells overexpressing human FPR2; forskolin 5 µM; inhibition of cAMP production; read-out: hFPR2 cAMP2 EC50
pEC50: −log10 of the molar value.
readoutName: pEC50

See these solved cases before continuing.
1. COc1ccc([C@@H]2CN(c3cccn(CC(O)C(F)(F)F)c3=O)C(=O)[C@H]2NC(=O)c2ccc(OC(F)F)cc2)cc1 (stereo partly drawn) [Example 371]: 8.72
2. COc1cc(F)c([C@@H]2CN(c3cncn(C4CCOCC4)c3=O)C(=O)[C@H]2NC(=O)c2ccc(Cl)cc2)c(F)c1: 8.24
3. COc1ccc([C@@H]2CN(c3c(C)ccn(CC4CCOCC4)c3=O)C(=O)[C@H]2NC(=O)c2ccc(OC(F)(F)F)cc2)cc1: 8.52
4. COCCn1cccc(N2C[C@@H](c3c(F)cc(OC)cc3F)[C@H](NC(=O)c3ccc(C)cc3)C2=O)c1=O: 8.06

I = COCCn1ccc(C)c(N2C[C@@H](c3ccc(OC)cc3F)[C@H](NC(=O)c3ccc(OC(F)(F)F)cc3)C2=O)c1=O
II = COc1cc(F)c([C@@H]2CN(c3cncn(C4CCN(C)C4)c3=O)C(=O)[C@H]2NC(=O)c2ccc(Cl)cc2)c(F)c1 (stereo partly drawn) [Example 713]
Request: Form field 'greater pEC50' accepts I or II ; which applies? Respond with the label that goes with your answer.
Result: II

###

biological target: human FPR2 (Homo sapiens (Human), UniProt P25090); assay: FPR2 cyclic adenosine monophosphate (cAMP) assay; details: CHO cells overexpressing human FPR2; forskolin 5 µM; inhibition of cAMP production; read-out: hFPR2 cAMP2 EC50
Sequence (P25090 whole entry): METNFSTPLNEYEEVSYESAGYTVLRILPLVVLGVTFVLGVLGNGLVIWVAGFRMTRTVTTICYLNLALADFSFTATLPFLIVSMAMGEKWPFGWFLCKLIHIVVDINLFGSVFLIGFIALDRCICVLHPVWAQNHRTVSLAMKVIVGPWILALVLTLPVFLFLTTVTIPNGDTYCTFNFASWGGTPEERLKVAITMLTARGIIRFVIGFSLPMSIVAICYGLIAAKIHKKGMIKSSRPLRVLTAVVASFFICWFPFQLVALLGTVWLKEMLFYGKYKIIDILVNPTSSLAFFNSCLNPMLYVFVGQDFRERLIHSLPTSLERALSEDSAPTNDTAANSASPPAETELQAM
pEC50: −log10 of the molar value.
readoutName: pEC50

1. COc1cc(F)c([C@@H]2CN(c3c(C)ccn(C4CCNC4)c3=O)C(=O)[C@H]2NC(=O)c2ccc(OC(F)F)cc2)c(F)c1 (stereo partly shown) [Example 601]: 8.70
2. COc1ccc([C@@H]2CN(c3c(C)ccn(CCO)c3=O)C(=O)[C@H]2NC(=O)c2ccc(OC(F)(F)F)cc2)cc1 [Example 108]: 8.54
3. COc1cc(F)c([C@@H]2CN(c3cccn(CC(O)CO)c3=O)C(=O)[C@H]2NC(=O)c2ccc(OC(F)F)cc2)c(F)c1 (stereo partly shown) [Example 678]: 7.96
4. COc1cc(F)c([C@@H]2CN(c3c(C)ccn(CC4CCOC4)c3=O)C(=O)[C@H]2NC(=O)c2ccc(OC(F)F)cc2)c(F)c1 (stereo partly shown) [Example 693]: 8.70

P = COc1cc(F)c([C@@H]2CN(Cc3ccccc3P(C)(C)=O)C(=O)[C@H]2NC(=O)c2ccc(OC(F)(F)F)cc2)c(F)c1 [Example 17]
Q = COc1cc(F)c([C@@H]2CN(c3cccn(CC(O)CO)c3=O)C(=O)[C@H]2NC(=O)c2ccc(OC(F)(F)F)cc2)c(F)c1 (stereo partly shown) [Example 679]
Request: Lab notebook, comparison: P versus Q , higher pEC50 goes to which? Answer by stating the label of the chosen item.
Result: Q

Reference source for all entries: patent US20230348426A1
